# assayed.system: canine IL-4RA (construct not given) (canine)
# method: SPR, IL-4RA immobilised, periplasmic Fab
metric.name: RU max

binder	metric.name	result
FJ2246MP06C01 (Fab, V domains shown) VH: EVQLVESGGDLVKPGGSLRLSCVASGFTFRDYAMTWVRQAPGKGLQWVSLINGNGGKTYYADAVKGRFTISRDNAKNTLYLQMNSLRAEDTAVYYCAVDRLTKTIRPQYYGLWVWGQGTLVTVSS VL: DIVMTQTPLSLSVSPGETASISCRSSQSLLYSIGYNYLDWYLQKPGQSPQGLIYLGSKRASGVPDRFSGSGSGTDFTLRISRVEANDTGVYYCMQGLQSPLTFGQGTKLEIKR	RU max	160 RU
FJ2246MP05F12 (Fab, V domains shown) VH: EVQLVESGGDLVKPGGSLRLSCVASGFPFRDYAMTWVRQAPGKGLQWVSLINGSGGKTYYADAVKGRFTISRDNAKNTLYLQMNSLRAEDTAVYYCAVDRLTKTIRPQYYGLWVWGQGTLVTVSS VL: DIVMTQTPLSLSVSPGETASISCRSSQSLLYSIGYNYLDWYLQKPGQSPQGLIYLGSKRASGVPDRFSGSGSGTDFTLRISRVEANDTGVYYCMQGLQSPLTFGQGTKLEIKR	RU max	208 RU
FJ2246MP06G06 (Parental Fab of TB640_005) (Fab, V domains shown) VH: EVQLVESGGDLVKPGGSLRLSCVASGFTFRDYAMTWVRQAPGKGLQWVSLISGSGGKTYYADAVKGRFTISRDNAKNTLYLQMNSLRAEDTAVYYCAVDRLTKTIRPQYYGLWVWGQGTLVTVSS VL: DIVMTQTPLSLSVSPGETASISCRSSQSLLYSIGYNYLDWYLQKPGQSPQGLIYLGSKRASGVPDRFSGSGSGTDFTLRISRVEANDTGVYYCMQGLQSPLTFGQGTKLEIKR	RU max	105 RU
